In this section, each of the molecules is paired with its reported cytotoxicity at 10 µM.
- Test protocol: Toxicity liver stage against HepG2, at 10uM
- Type: cell-based
- Set-up: test concentration 10 uM, cell line HepG2-A16-CD81EGFP
- Condition set: human, HepG2-A16-CD81EGFP cells; read-out: INHIBITION

Molecule: CCC(C)c1noc(C2CCN(C(=O)Cn3nc(C)cc3C)CC2)n1 (stereo unspecified)
cytotoxicity at 10 µM: 6.58%
//
Molecule: Cc1ccc2c(n1)N(C)CCN(C(=O)NC1CC1)C2
cytotoxicity at 10 µM: 1.36%
//
Molecule: CCn1nc(C)c2nc(C)nc(NCCCn3cccn3)c21
cytotoxicity at 10 µM: 2.38%
//
Molecule: CN(c1ccc(F)c(F)c1)S(=O)(=O)c1cc(C(=O)O)cs1
cytotoxicity at 10 µM: -4.89%
//
Molecule: CC(C)n1cc(CN2CCCN(C(=O)C3(C)CCOCC3)CC2)cn1
cytotoxicity at 10 µM: -48.2%
//
Molecule: CN(CC(=O)NCC(F)(F)F)C(=O)c1ccc(C(=O)OC(C)(C)C)cc1
cytotoxicity at 10 µM: 0.68%
//
Molecule: Cc1nnsc1C(=O)NCc1cccnc1N(C)Cc1ccccc1
cytotoxicity at 10 µM: -6.91%
//
Molecule: CCCC(NC(=O)c1cc(C)c(F)cc1F)c1nnn[nH]1 (stereo unspecified)
cytotoxicity at 10 µM: -2.59%
//
Molecule: Cc1cc(C)n(-c2cncc(NCCNC(=O)c3cccnc3)n2)n1
cytotoxicity at 10 µM: 7.45%
//
Molecule: CC(=O)N1CCCC(Cc2cnc(-n3ccnc3)cn2)C1 (stereo unspecified)
cytotoxicity at 10 µM: -21.7%
//
Molecule: Cc1nccc(C(=O)N2CCCC(c3cc(C(F)(F)F)[nH]n3)C2)n1 (stereo unspecified)
cytotoxicity at 10 µM: -4.59%

Measured values drawn from ChEMBL document CHEMBL4513216 for this set.
